System: COLO 205
ASSAY NOTES: NCI tumour cell line growth inhibition, 48 h
Calls of active or inactive are those of the source. No stated cut-off is given here; in the data, active = GI50 up to about 1.1 µM and inactive = higher.
QUANTITY NAME: GI50

Answered cases to consult:
{"COMPOUND": "Cc1cc(=O)oc2c(CNC(C)C(=O)O)c(O)ccc12 (stereo not drawn)", "ASSAYED TARGET": "COLO 205", "GI50": "> 100 µM (inactive)"}
{"COMPOUND": "Cn1cc(C(=O)C[n+]2ccccc2)c2ccccc21", "ASSAYED TARGET": "COLO 205", "GI50": "52.2 µM (inactive)"}

# next compound below
Q: I'd like to know its GI50. The compound in question is Cc1nc(N)c(N2CCN(C(=O)O)CC2)c(O)n1
A: > 100 µM (inactive)
